- Test system: CP211
- measurement-description: qHTS profiling for inhibitors of Plasmodium falciparum proliferation (AID 504749); note: nearly all actives have a fitted effect of over 60% in size
- measurement-parameters: P. falciparum in erythrocytes, SYBR Green DNA, 72 h; series mostly up to 28.7 µM
Results filed as inconclusive are left out. Activity calls are given as the source filed them. Calls come from the whole dose curve; as a rule, active = well fitted inhibition curve with a large enough effect; inconclusive = small, poorly fitted or top-dose-only effect; inactive = flat fitted curve, though single readings scatter.
Outcome codes: 1 (active), 0 (inactive)

molecule | target-system | label-class
C1CCc2nnnn2CC1 | CP211 | 0
OC(CCN1CCCCC1)(c1ccccc1)c1ccccc1 | CP211 | 0
CCCCCCCCCCCCCCCC[N+](C)(C)CC | CP211 | 1
O=C1[C@H]2CCCC[C@H]2C(=O)N1CCCCN1CCN(c2nsc3ccccc23)CC1 | CP211 | 0
CCCCC(CC)CN=C(N)NC(N)=NCCCCCCN=C(N)NC(N)=NCC(CC)CCCC (stereo not drawn) | CP211 | 1
COc1c2occc2c(OC)c2c(=O)cc(C)oc12 | CP211 | 0
COc1cc2c(cc1OC)C(C(C(=O)N(CCc1ccc(OC)c(OC)c1OC)CCc1ccc(OC)c(OC)c1OC)c1ccccc1)=NCC2 (stereo not drawn) | CP211 | 1
CCOC(=O)COc1ccc2c(C)c(CCN(CC)CC)c(=O)oc2c1Cl | CP211 | 0
COc1cccc(CCc2ccccc2OCC(CN(C)C)OC(=O)CCC(=O)O)c1 (stereo not drawn) | CP211 | 1
CN1C2CCC1CC(OC(=O)c1c[nH]c3ccccc13)C2 (stereo not drawn) | CP211 | 0
CCOC(=O)/C=C(C)/C=C/C=C(C)/C=C/c1c(C)cc(OC)c(C)c1C | CP211 | 0
CCOc1ccc(NC(=O)CC(C)O)cc1 (stereo not drawn) | CP211 | 0
CCCCCCCCCCCCCCNCCO | CP211 | 0
COCc1c(C(C)C)nc(C(C)C)c(/C=C/[C@@H](O)C[C@@H](O)CC(=O)O)c1-c1ccc(F)cc1 | CP211 | 0
Cc1cccc(C)c1NC(=O)CN1CCN(CCCC(c2ccc(F)cc2)c2ccc(F)cc2)CC1 | CP211 | 0
CCN1CCC[C@H]1CNC(=O)c1c(OC)ccc(Br)c1OC | CP211 | 0
CC(=O)Nc1c(I)cc(I)c(C(=O)O)c1I | CP211 | 0
COc1cc(OC)cc(OC)c1 | CP211 | 0
O=C1OC(c2ccc(O)cc2)(c2ccc(O)cc2)c2ccccc21 | CP211 | 0
CC[N+](CC)(CCNC(=O)C(=O)NCC[N+](CC)(CC)Cc1ccccc1Cl)Cc1ccccc1Cl | CP211 | 1
CN=C(NC#N)Nc1ccc(C2=NNC(=O)CC2C)cc1 (stereo not drawn) | CP211 | 0
O=C(OCCOCCO)c1ccccc1Nc1cccc(C(F)(F)F)c1 | CP211 | 0
Cc1ncc(CSSCc2cnc(C)c(O)c2CO)c(CO)c1O | CP211 | 0

###

- measurement-description: Drug repurposing screens with cells derived from glioblastoma tumor samples (AID 1345199); note: % is set by controls: 0 for no effect and ±100 for the full control effect; nearly all actives have a fitted effect of over 40% in size
- measurement-parameters: GBM patient neurospheres viability, ATP luminescence, 48 h; at 45.9 µM (top of the series); tumour line D
Inconclusive results are not listed. The source made the active and inactive calls. Calls follow the shape of the dose curve; as a rule, active = well fitted inhibition curve with a large enough effect; inconclusive = small, poorly fitted or top-dose-only effect; inactive = flat fitted curve, though single readings scatter.

molecule | activity, negative = cell killing
CCCC1O[C@@H]2C[C@H]3[C@@H]4CCC5=CC(=O)C=C[C@]5(C)[C@H]4[C@@H](O)C[C@]3(C)[C@]2(C(=O)CO)O1 (some centres not stated) | -5.46% (inactive)
CN1C(CCl)Nc2cc(Cl)c(S(N)(=O)=O)cc2S1(=O)=O (configuration not stated) | -2.64% (inactive)
CC(O)(P(=O)(O)O)P(=O)(O)O | 0.0097% (inactive)
CCCCc1nc(Cl)c(CO)n1Cc1ccc(-c2ccccc2-c2nn[nH]n2)cc1 | -10.9% (inactive)
Cc1c(F)c(N2CCNC(C)C2)cc2c1c(=O)c(C(=O)O)cn2C1CC1 (configuration not stated) | 3.74% (inactive)
CCC(NC(C)C)C(O)c1ccc(O)c(O)c1 (configuration not stated) | 12.5% (inactive)
CN1[C@@H]2CC[C@H]1CC(OC(=O)c1c[nH]c3ccccc13)C2 (some centres not stated) | -12.6% (inactive)
